tested on: Wolbachia pipientis; assay: Anti-Wolbachia Cell-Based Screen; format: functional; design: scale not given: in the data most compounds retested in dose-response had high values; settings: 5 µM
Out of some 48,000 compounds screened, about 13,000 (27%) showed an effect of 50% or more. The list shows a part of the results.
testReadout: Percent Effect (%)
Field: numeric (%). Do not append units.

See these solved cases before continuing.
compound: CC(C)CN1C[C@@H]2OCC(=O)N(c3ccccc3)[C@@H]2C1
studyTarget: Wolbachia pipientis
unitSpec: %
resultNumber: -2.791
//
compound: CC(NCc1ccc(F)cc1)c1ccc2[nH]c(=O)[nH]c2c1 (configuration not stated)
studyTarget: Wolbachia pipientis
unitSpec: %
resultNumber: 94.79
//
compound: CC(C)(C)c1noc(OCC(=O)NCC(F)(F)F)n1
studyTarget: Wolbachia pipientis
unitSpec: %
resultNumber: 4.463
//
compound: Cc1cc(O)cc2c(=O)oc(CC(C)O)cc12 (configuration not stated)
studyTarget: Wolbachia pipientis
unitSpec: %
resultNumber: -7.016
//
compound: CCc1nnsc1C(=O)NC1CCN(CCOc2ccc(Br)cc2)CC1
studyTarget: Wolbachia pipientis
unitSpec: %
resultNumber: -5.495

Query: For "Cl.Cn1ccnc1N1CCN(C(=O)Cc2ccc(Cl)cc2)CC1" , what is its reported Percent Effect?
Response: 89.82

Query: Would you kindly repeat that for "CSCCN(C)Cc1ccc(F)cc1C#N" ?
Response: -7.692

Query: Would you kindly repeat that for CC(NC(=O)NCC(C)(C)O)c1ccc(-c2cncnc2)cc1 (configuration not stated) ?
Response: -6.963

Query: Would you kindly repeat that for "CC(=O)N1CCN(C(=O)CN2CCN(c3cccc(C)c3)CC2)CC1" ?
Response: 4.87

Query: Would you kindly repeat that for CC(NCc1ccc(OCC(N)=O)cc1)c1ccc(Cl)c(Cl)c1.Cl (configuration not stated) ?
Response: 11.22

Query: Would you kindly repeat that for "Cc1cc(N2CCCN(C(=O)Cc3ccc(O)c(Cl)c3)CC2)ccn1" ?
Response: 6.362

Query: Would you kindly repeat that for COc1ccc(CNC(C)c2ccc3[nH]c(=O)[nH]c3c2)cc1 (configuration not stated) ?
Response: 1.768
